experiment: Kinetic Gly-pNA chemoassay (second-order rate constant k Gly); conditions: reaction with Gly-pNA, phosphate buffer 80 mM, 25 °C, nominal test compound concentration; ≥ values are minimum reactivity;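 further: Gly-pNA depletion followed over time by chromatographic peak area, with test compound in at least tenfold excess (pseudo-first-order), added from acetonitrile stock, at least three runs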
// label = t if k Gly ± s(k Gly), second-order rate constant is not less than 2 L mol^–1 min^–1, otherwise f

O=C1OC(=O)C2CCCCC12 (stereo not drawn) [D1, hexahydrophthalic anhydride]; t
CC1(C)CC(N=C=O)CC(C)(CN=C=O)C1 (stereo not drawn) [B2, isophorone diisocyanate]; t
C=CC(=O)OCC [F4, ethyl acrylate]; f
C=CC(=O)OCCCC [F3, butyl acrylate]; f
O=C(O)c1ccc2c(c1)C(=O)OC2=O [C2, trimellitic anhydride]; t
C=C(C#N)C(=O)OCC [F1, ethyl 2-cyanoacrylate]; t
O=C=Nc1ccc(Cc2ccc(N=C=O)cc2)cc1 [A4, 4,4′-methylene diphenyl diisocyanate]; t

Continue with the molecule presented below.
Could you please find out whether O=[N+]([O-])c1ccc(F)c([N+](=O)[O-])c1 has k Gly ± s(k Gly), second-order rate constant that meets 2 L mol^–1 min^–1 or exceeds it?
t
